Target: T1, human MCH-1R (human, UniProt Q99705 1-353)
T1 construct: Function: 293AEQ17/MCH-1R cells; also called hMCH-1R
T1 sequence (Q99705 whole entry): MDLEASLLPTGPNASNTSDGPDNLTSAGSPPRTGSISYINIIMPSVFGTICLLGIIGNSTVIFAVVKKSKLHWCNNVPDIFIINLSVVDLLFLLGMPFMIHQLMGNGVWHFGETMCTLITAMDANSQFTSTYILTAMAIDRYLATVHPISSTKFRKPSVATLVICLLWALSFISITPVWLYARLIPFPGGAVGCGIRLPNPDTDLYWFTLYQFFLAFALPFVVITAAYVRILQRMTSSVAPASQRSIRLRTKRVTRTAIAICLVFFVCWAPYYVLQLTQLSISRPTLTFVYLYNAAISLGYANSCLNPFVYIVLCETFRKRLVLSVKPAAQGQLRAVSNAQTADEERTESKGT
Test: ratio of the two SPA IC50s
Positions of bridges follow the written chain, without caps; N, C: chain ends.
REPORTED ENDPOINT: Selectivity 2/1 (MCH-2R/MCH-1R IC50 ratio)

RCMLXRVYRPC (HELM PEPTIDE1{[ac].R.C.M.L.[O=C([C@H](Cc1ccc2ccccc2c1)N[*:1])[*:2]].R.V.Y.R.P.C.[am]}$PEPTIDE1,PEPTIDE1,3:R3-12:R3$$$V2.0; SMILES CSCC[C@@H]1NC(=O)[C@@H](NC(=O)[C@H](CCCNC(=N)N)NC(C)=O)CSSC[C@@H](C(N)=O)NC(=O)[C@@H]2CCCN2C(=O)[C@H](CCCNC(=N)N)NC(=O)[C@H](Cc2ccc(O)cc2)NC(=O)[C@H](C(C)C)NC(=O)[C@H](CCCNC(=N)N)NC(=O)[C@H](Cc2ccc3ccccc3c2)NC(=O)[C@H](CC(C)C)NC1=O) [SEQ. ID. NO. 21 (Nal(2′)^10 analog of Ac-hMCH(6-16)-NH2)] ... 14

a = RCMLXRVYRPC (N-terminal acetyl; Nle (norleucine) at position 10; C-terminal amide; disulfide cycle) [SEQ. ID. NO. 18 (Nle^10 analog of Ac-hMCH(6-16)-NH2)]
b = Ac-RCMLKRVYRPC-NH2 (disulfide 2-11 (inferred)) [SEQ. ID. NO. 24 (Lys^10 analog of Ac-hMCH(6-16)-NH2)]
INPUT: Which value of Selectivity 2/1 (MCH-2R/MCH-1R IC50 ratio) is numerically greater: that of a or that of b ? Label of pick, please.
OUTPUT: b
(b: 86 ratio, a: 21 ratio)
